- tested-system: human CB1R (Homo sapiens, UniProt P21554)
- Construct: host or cells: CHO cells
- Sequence (P21554 whole entry): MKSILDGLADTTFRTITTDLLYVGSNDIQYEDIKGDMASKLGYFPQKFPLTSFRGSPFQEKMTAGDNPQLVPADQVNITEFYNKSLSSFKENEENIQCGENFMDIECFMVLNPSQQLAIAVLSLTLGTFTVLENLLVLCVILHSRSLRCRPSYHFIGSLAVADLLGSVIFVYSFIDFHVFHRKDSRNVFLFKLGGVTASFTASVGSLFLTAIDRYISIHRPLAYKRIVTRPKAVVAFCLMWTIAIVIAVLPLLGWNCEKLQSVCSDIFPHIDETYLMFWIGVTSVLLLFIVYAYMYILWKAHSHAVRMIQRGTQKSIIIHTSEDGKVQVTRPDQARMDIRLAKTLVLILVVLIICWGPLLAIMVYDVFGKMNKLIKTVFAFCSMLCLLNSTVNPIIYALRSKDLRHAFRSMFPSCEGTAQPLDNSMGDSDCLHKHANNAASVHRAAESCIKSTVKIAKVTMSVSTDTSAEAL
- experiment-notes: CB1R mediated modulation of cAMP synthesis
- Type: cell-based
reported-property: EC50 (µM)
Please respond with the number in µM and leave the unit unwritten.

Record excerpt, results attached:
# mol, unit-spec, EC50
records = [
    ("C[C@H](O)C(C)(C)c1cc(NC(=O)C(C)(C)N(C)C2CCOCC2)on1", "µM", 44.7),
    ("CN(C(=O)CCCC(F)(F)F)C(C)(C)C(=O)Nc1cc(C(C)(C)CO)no1", "µM", 32.1),
    ("CN(C1CCOCC1)C(C)(C)C(=O)Nc1cc(C2(CO)CCCC2)no1", "µM", 21.5),
]

Q: Using the record for `CC(C)(CO)c1cc(NC(=O)C(C)(C)N2CCCCC2)on1` , report its EC50.
A: 22

Q: What measured EC50 goes with `CN(CC1CC1)C(C)(C)C(=O)Nc1cc(C(C)(C)CO)no1` ?
A: 36

Q: Can you share its EC50? I mean this compound: `Cc1ncc(C(C)(C)c2cc(NC(=O)C(C)(C)N(C)C3CCOCC3)on2)o1`
A: 20.8

* * *

- tested-system: human CB1R (Homo sapiens, UniProt P21554)
- Construct: host or cells: CHO cells
- experiment-notes: CB1R mediated modulation of cAMP synthesis
- Assay type: cell-based
- condition-notes: CHO cells expressing human CB1R; inhibition of forskolin-stimulated cAMP synthesis; read-out: CB1 EC50
Reported EC50 values follow for various molecules

Record excerpt, results attached:
# mol, observed-value
measured = [
    ("COCC(C)(C)c1cc(NC(=O)C(C)(C)NCC2CCOCC2)no1", "> 20 µM"),
    ("CC(C)(N[C@H]1CC[C@@H](O)CC1)C(=O)Nc1cc(C(C)(C)CO)no1", "> 50 µM"),
    ("COCCOCC(C)(C)c1cc(NC(=O)C(C)(C)N(C)C2CCOCC2)on1", "> 50 µM"),
    ("CC(C)(CO)c1cc(NC(=O)C(C)(C)N2CC[C@@H](O)C2)on1", "> 50 µM"),
    ("COCC(C)(C)c1cc(NC(=O)C(C)(C)NC2CCOCC2)no1", "> 20 µM"),
]

Q: Quick one: EC50 of `CN(CC1CCOCC1)C(C)(C)C(=O)Nc1nnc(C(C)(C)CO)s1` ?
A: > 50 µM

Q: Returns the measured EC50 for the input molecule. Input: `CC(C)N(C)C(C)(C)C(=O)Nc1cc(C(C)(C)CO)no1`
A: > 50 µM

Q: I'd like to know its EC50. The molecule in question is `CC(C)(NCC1CCOCC1)C(=O)Nc1cc(C(C)(C)CO)no1`
A: > 50 µM

Q: Looking for the measured EC50 of `CN(C[C@H]1CCCN(S(C)(=O)=O)C1)C(C)(C)C(=O)Nc1cc(C(C)(C)CO)no1` , can you help?
A: > 50 µM

Q: Entry under review: `Cc1ncc(C(C)(C)c2cc(NC(=O)C(C)(C)NC3CCN(S(C)(=O)=O)CC3)on2)s1` . Reported EC50?
A: > 50 µM

Q: Requested read-out: EC50. Entry: `CC(C)(NCCCC(F)(F)F)C(=O)Nc1cc(C(C)(C)OCCO)no1`
A: > 50 µM
